- target.or.test.system: ABL1 (Homo sapiens)
- Construct: purchased Carna Biosciences
- procedure.text: Luminescence-based ABL kinase assay (ADP-Glo, 300 μM ATP)
- Format: biochemical
assay.metric: IC50 (nM)
Use nM as the unit, but write only the number.

> print(dat)
                                   compound  assay.metric  measurement
1  COc1ccccc1-c1c[nH]c2nc(NC(=O)NCCN3CCN(C)CC3)ccc12 [Compound 42]          IC50         45.4
2  COc1cccc(OC)c1-c1c[nH]c2nc(NC(=O)[C@@H]3C[C@@H]3F)ccc12 [Compound 118]          IC50         3.73

In: Return reported IC50; argument: COc1c(-c2c[nH]c3nc(NC(=O)[C@H]4C[C@H]4F)ccc23)ccc2[nH]cnc12 [Compound 51]
Out: 15.4

----------
- target.or.test.system: ABL1 (T315I) (Homo sapiens, UniProt P00519, T315I)
- procedure.text: Luminescence-based ABL kinase assay (ADP-Glo, 300 μM ATP), T315I mutant
- Format: biochemical
assay.metric: IC50 (nM)
Use nM as the unit, but write only the number.

Some solved entries appear below for comparison.
> print(dat)
                                   molecule  unit.spec  measurement
1  COc1ncc(F)c(OC)c1-c1c[nH]c2nc(NC(=O)NCCN3CCN(C)CC3)ccc12         nM         59.3
2  COc1ncccc1-c1n[nH]c2nc(NC(=O)[C@@H]3C[C@@H]3F)ccc12         nM          137
3  COc1cc2scnc2cc1-c1c[nH]c2nc(NC(=O)[C@@H]3C[C@@H]3F)ccc12         nM         27.8

Moving on to another molecule below.
In: Return reported IC50; argument: COc1cccc(OC)c1-c1c[nH]c2nc(NC(=O)C3CC3CN3CCNCC3)ccc12 (single isomer, unassigned) [Example S150, Enantiomer 1]
Out: 1.73

----------
The reader will find reported IC50 values listed item by item below.
- target.or.test.system: ABL1 (T315I) (Homo sapiens, UniProt P00519, T315I)
- procedure.text: Luminescence-based ABL kinase assay (ADP-Glo, 300 μM ATP), T315I mutant
- Format: biochemical

> print(dat)
                         structure.notation                     target.or.test.system  measurement
1  COc1cccc(OC)c1-c1c[nH]c2nc(NC(=O)NCCCN(C)C)ccc12  ABL1 (T315I) (Homo sapiens, UniProt P00519, T315I)      28.1 nM
2  COc1nc2[nH]ccc2cc1-c1c[nH]c2nc(NC(=O)[C@H]3C[C@@H]3F)ccc12  ABL1 (T315I) (Homo sapiens, UniProt P00519, T315I)      31.2 nM
3  COc1ccccc1-c1n[nH]c2nc(NC(=O)[C@@H]3C[C@@H]3F)ccc12  ABL1 (T315I) (Homo sapiens, UniProt P00519, T315I)      16.3 nM

In: Return reported IC50; argument: "COc1cc2nccn2cc1-c1c[nH]c2nc(NC(=O)[C@@H]3C[C@@H]3F)ccc12"
Out: 162 nM

----------
The reader will find reported IC50 values listed item by item below.
- target.or.test.system: ABL1 (T315I) (Homo sapiens, UniProt P00519, T315I)
- procedure.text: Luminescence-based ABL kinase assay (ADP-Glo, 300 μM ATP), T315I mutant
- Format: biochemical
Use nM as the unit, but write only the number.

Some solved entries appear below for comparison.
> print(dat)
                                   molecule                     target.or.test.system  measurement
1  COc1c(F)cccc1-c1n[nH]c2nc(NC(=O)[C@@H]3C[C@@H]3F)ccc12  ABL1 (T315I) (Homo sapiens, UniProt P00519, T315I)          105
2  COc1cccc(OC)c1-c1c[nH]c2nc(NC(=O)NCCN3CCN(C)CC3)ccc12  ABL1 (T315I) (Homo sapiens, UniProt P00519, T315I)         9.08
3  O=C(Nc1ccc2c(-c3ccc4[nH]cnc4c3)c[nH]c2n1)[C@@H]1C[C@@H]1F  ABL1 (T315I) (Homo sapiens, UniProt P00519, T315I)         2.84

In: Return reported IC50; argument: "COc1ncc(F)c(OC)c1-c1c[nH]c2nc(NC(=O)[C@@H]3C[C@@H]3F)ccc12"
Out: 7.38

In: Return reported IC50; argument: "COc1ccccc1-c1c[nH]c2nc(NC(=O)NCC3CC3)ccc12"
Out: 19.9

In: Return reported IC50; argument: "COc1cc2cn[nH]c2cc1-c1c[nH]c2nc(NC(=O)[C@@H]3C[C@@H]3F)ccc12"
Out: 3.4

In: Return reported IC50; argument: "COc1ncc(F)cc1-c1c[nH]c2nc(NC(=O)NCCN(C)C)ccc12"
Out: 659

In: Return reported IC50; argument: "COc1cccc(F)c1-c1c[nH]c2nc(NC(=O)[C@H]3C[C@H]3F)ccc12"
Out: 7.17

In: Return reported IC50; argument: "O=C(Nc1ccc2c(-c3ccc4nccn4c3)c[nH]c2n1)C1CC1"
Out: 53.5

In: Return reported IC50; argument: "COc1cc2[nH]ncc2cc1-c1n[nH]c2nc(NC(=O)[C@@H]3C[C@@H]3F)ccc12"
Out: 20.5

In: Return reported IC50; argument: "COc1ccccc1-c1c[nH]c2nc(NC(=O)C3CC3)ccc12"
Out: 11.3

In: Return reported IC50; argument: "Nc1ccc(-c2c[nH]c3nc(NC(=O)C4CC4)ccc23)cn1"
Out: 170

----------
- target.or.test.system: ABL1 (T315I) (Homo sapiens, UniProt P00519, T315I)
- procedure.text: Luminescence-based ABL kinase assay (ADP-Glo, 300 μM ATP), T315I mutant
- Assay type: biochemical
assay.metric: IC50 (nM)
Use nM as the unit, but write only the number.

Some solved entries appear below for comparison.
> print(dat)
                                   compound  assay.metric  unit.spec  measurement
1  COc1ncc(F)cc1-c1c[nH]c2nc(NC(=O)[C@@H]3C[C@@H]3F)ccc12          IC50         nM         27.3
2  COc1ccccc1-c1c[nH]c2nc(NC(=O)NCCN3CCNCC3)ccc12          IC50         nM         5.98
3  O=C(Nc1ccc2c(-c3cccnc3OC(F)F)c[nH]c2n1)[C@@H]1C[C@@H]1F          IC50         nM          140
4  COc1ccccc1-c1c[nH]c2nc(NC(=O)NCCC#N)ccc12          IC50         nM         29.1
5  COc1ccccc1-c1c[nH]c2nc(NC(=O)[C@H]3C[C@@H]3CC#N)ccc12 (relative stereo)          IC50         nM         19.5
6  COc1nc(C)nc(OC)c1-c1c[nH]c2nc(NC(=O)[C@@H]3C[C@@H]3F)ccc12          IC50         nM         14.3
7  COc1ccccc1-c1c[nH]c2nc(NC(=O)NCCOCCN(C)C)ccc12          IC50         nM         30.6

Moving on to another compound below.
In: Return reported IC50; argument: "Cn1cc(-c2c[nH]c3nc(NC(=O)C4CC4)ccc23)ccc1=O"
Out: 3870

----------
- target.or.test.system: ABL1 (T315I) (Homo sapiens, UniProt P00519, T315I)
- procedure.text: Luminescence-based ABL kinase assay (ADP-Glo, 300 μM ATP), T315I mutant
- Format: biochemical
assay.metric: IC50 (nM)
Use nM as the unit, but write only the number.

Some solved entries appear below for comparison.
> print(dat)
                                   compound  unit.spec  measurement
1  COc1ccccc1-c1c[nH]c2nc(NC(=O)NCCN3CCN(C)CC3)ccc12 [Compound 42]         nM         12.7
2  COc1ccccc1-c1c[nH]c2nc(NC(=O)NCCN3CCOCC3)ccc12 [Compound 43]         nM         15.6

In: Short answer please: IC50, ABL1 (T315I) (Homo sapiens, UniProt P00519, T315I), entry COc1cccc(OC)c1-c1c[nH]c2nc(NC(=O)C3CC3CCN(C)C)ccc12 (single isomer, unassigned) [Example S205, Enantiomer 1]
Out: 15

In: Short answer please: IC50, ABL1 (T315I) (Homo sapiens, UniProt P00519, T315I), entry COc1nccc(C)c1-c1c[nH]c2nc(NC(=O)[C@@H]3C[C@@H]3F)ccc12 [Compound 113]
Out: 15.9

In: Short answer please: IC50, ABL1 (T315I) (Homo sapiens, UniProt P00519, T315I), entry CCOc1cccc(F)c1-c1n[nH]c2nc(NC(=O)[C@@H]3C[C@@H]3F)ccc12 [Compound 67]
Out: 37.7

In: Short answer please: IC50, ABL1 (T315I) (Homo sapiens, UniProt P00519, T315I), entry COc1cc2sncc2cc1-c1c[nH]c2nc(NC(=O)[C@@H]3C[C@@H]3F)ccc12 [Compound 84]
Out: 14.9

In: Short answer please: IC50, ABL1 (T315I) (Homo sapiens, UniProt P00519, T315I), entry COc1c(-c2c[nH]c3nc(NC(=O)[C@@H]4C[C@@H]4F)ccc23)ccc2cn[nH]c12 [Compound 81]
Out: 12.9

In: Short answer please: IC50, ABL1 (T315I) (Homo sapiens, UniProt P00519, T315I), entry COc1cc2scnc2cc1-c1c[nH]c2nc(NC(=O)NCCN3CCNCC3)ccc12 [Compound 140]
Out: 82.5
